- Test system: Salmonella typhimurium
- Assay Method Text: Mutagenicity in Salmonella typhimurium by Ames II test in presence of liver S9 fraction
- Format: toxicity, organism-based
- Measurement Parameters: salmonella enterica subsp. enterica serovar typhimurium

{"Smi": "CCCC(=O)c1cnn(-c2ccc(N)c(C(=O)O)c2)c1C", "Activity": "Non-toxic"}
{"Smi": "CCCC(=O)c1cnn(C2CCN(N)CC2)c1C", "Activity": "Non-toxic"}
{"Smi": "CCCC(=O)c1cnn(-c2ccc3c(c2)OCCN3)c1C", "Activity": "Non-toxic"}
{"Smi": "CCCC(=O)c1cnn(-c2cnc(N)s2)c1C", "Activity": "Toxic"}
{"Smi": "CCCC(=O)c1cnn(-c2ccc(N)nn2)c1C", "Activity": "Non-toxic"}
{"Smi": "CCCC(=O)c1cnn(-c2cnc(N)cn2)c1C", "Activity": "Non-toxic"}
{"Smi": "CCCC(=O)c1cnn(-c2ccc(N)c(C(N)=O)c2)c1C", "Activity": "Non-toxic"}
{"Smi": "CCCC(=O)c1cnn(-c2ccc(O)cc2)c1C", "Activity": "Non-toxic"}
{"Smi": "CCCC(=O)c1cnn(-c2ccc(N)cc2)c1C", "Activity": "Toxic"}
{"Smi": "CCCC(=O)c1cnn(-c2ccc(N)cn2)c1C", "Activity": "Toxic"}
{"Smi": "CCCC(=O)c1cnn(-c2ccc(N)c(C(=O)N(C)C)c2)c1C", "Activity": "Toxic"}
{"Smi": "CCCC(=O)c1cnn(-c2ccc(N)c(C#N)c2)c1C", "Activity": "Non-toxic"}
{"Smi": "CCCC(=O)c1cnn(-c2ccc(N)nc2)c1C", "Activity": "Non-toxic"}

----------
// reported IC50 per item
- Assayed Target: P2Y purinoceptor 12 (Homo sapiens, UniProt Q9H244)
- Sequence (Q9H244 whole entry): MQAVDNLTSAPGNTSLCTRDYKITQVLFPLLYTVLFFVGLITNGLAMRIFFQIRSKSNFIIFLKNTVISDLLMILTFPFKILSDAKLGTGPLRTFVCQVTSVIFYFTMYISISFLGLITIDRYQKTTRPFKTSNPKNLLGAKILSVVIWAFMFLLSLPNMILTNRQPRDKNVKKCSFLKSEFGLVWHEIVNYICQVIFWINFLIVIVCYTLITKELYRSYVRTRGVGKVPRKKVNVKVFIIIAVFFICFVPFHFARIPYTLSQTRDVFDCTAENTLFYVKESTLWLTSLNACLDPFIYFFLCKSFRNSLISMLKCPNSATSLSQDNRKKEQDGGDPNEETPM
- Assay Method Text: Displacement of [33P]2MeS-ADP from P2Y12 receptor (unknown origin) transfected in CHO cells after 30 mins by scintillation counting analysis

{"Compound": "CCCC(=O)c1cnn(-c2ccc(NC(=O)c3cn(CC(=O)N4CCN(CC(F)F)CC4)c4ccc(C)cc34)cc2)c1C", "IC50 / nM": 19}
{"Compound": "CCCC(=O)c1cnn(-c2ccc(NC(=O)c3cn(CC(=O)N4CCN(CCOC)CC4)c4ccc(Cl)cc34)cc2)c1C", "IC50 / nM": 15}
{"Compound": "Cc1c(C(=O)CCC(F)(F)F)cnn1-c1ccc(NC(=O)c2cn(CC(=O)N3CCN(C)CC3)c3ccc(Cl)cc23)cc1", "IC50 / nM": 574}
{"Compound": "CCCC(=O)c1cnn(-c2ccc(NC(=O)c3cn(CC(=O)N(C)C)c4cc(C)c(C)cc34)cc2)c1C", "IC50 / nM": 31}
{"Compound": "CCCC(=O)c1cnn(-c2ccc(NC(=O)c3cn(CC(=O)N4CCN(C)CC4)c4cc(F)c(Cl)cc34)cc2)c1C", "IC50 / nM": 48}
{"Compound": "CCCC(=O)c1cnn(-c2ccc(NC(=O)c3cn(CC(=O)N4C[C@@H]5C[C@@H](O)CN5C[C@@H]4C)c4ccc(C)cc34)cc2)c1C", "IC50 / nM": 15}
{"Compound": "CCCC(=O)c1cnn(-c2ccc(NC(=O)c3cn(CC(=O)N4CCN(CCO)CC4)c4ccc(C)cc34)cc2)c1C", "IC50 / nM": 41}
{"Compound": "CCCC(=O)c1cnn(-c2ccc(NC(=O)c3cn(CC(=O)N4CCCC(NC)C4)c4ccc(C)cc34)cc2)c1C (stereo unspecified)", "IC50 / nM": 65}
{"Compound": "CCCC(=O)c1cnn(-c2ccc(NC(=O)c3cn(CC(=O)N[C@H]4CCNC4)c4ccc(C)cc34)cc2)c1C", "IC50 / nM": 61}
{"Compound": "CCCC(=O)c1cnn(-c2ccc(NC(=O)c3cn(CC(=O)N4CCN(CCO)CC4)c4ccc(Cl)cc34)cc2)c1C", "IC50 / nM": 11}
{"Compound": "CCCC(=O)c1cnn(-c2ccc(NC(=O)c3cn(CC(=O)N4CCN(C)CC4)c4cc(C)c(Cl)cc34)cc2)c1C", "IC50 / nM": 34}
{"Compound": "CCOC(=O)c1c(C)nn(-c2ccc(NC(=O)Nc3ccccc3OCCCC(=O)O)cc2)c1C", "IC50 / nM": 80}
{"Compound": "CCCC(=O)c1cnn(-c2ccc(NC(=O)c3cn(CCC(=O)O)c4ccc(C)cc34)cc2)c1C", "IC50 / nM": 7}
{"Compound": "CCCC(=O)c1cnn(-c2ccc(NC(=O)c3cn(CC(=O)N4CC5CNCC5C4)c4ccc(C)cc34)cc2)c1C (stereo unspecified)", "IC50 / nM": 106}
{"Compound": "CCCC(=O)c1cnn(-c2ccc(NC(=O)c3cn(CC(=O)N4CCN(C)CC4)c4ccc(Cl)cc34)cc2)c1C", "IC50 / nM": 27}
{"Compound": "CCCC(=O)c1cnn(-c2ccc(NC(=O)c3c(C)n(CC(=O)O)c4ccc(C)cc34)cc2)c1C", "IC50 / nM": 84}
{"Compound": "CCCC(=O)c1cnn(-c2ccc(NC(=O)c3cn(CC(=O)N4CCC(N(C)C)C4)c4ccc(C)cc34)cc2)c1C (stereo unspecified)", "IC50 / nM": 87}
{"Compound": "CCCC(=O)c1cnn(-c2ccc(OC(=O)c3cn(CC(=O)N4CCN(C)CC4)c4ccc(Cl)cc34)cc2)c1C", "IC50 / nM": 480}
{"Compound": "CCCC(=O)c1cnn(-c2ccc(NC(=O)n3cc(CCCC(=O)O)c4ccc(C)cc43)cc2)c1C", "IC50 / nM": 47}
{"Compound": "CCCC(=O)c1cnn(-c2ccc(NC(=O)c3cn(CC(=O)N4CC5CCNC5C4)c4ccc(C)cc34)cc2)c1C (stereo unspecified)", "IC50 / nM": 117}
{"Compound": "CCCC(=O)c1cnn(C2CCN(NC(=O)c3cn(CC(=O)N4CCN(C)CC4)c4ccc(Cl)cc34)CC2)c1C", "IC50 / nM": 7}
{"Compound": "CCCC(=O)c1cnn(-c2ccc(NC(=O)c3cn(CC(=O)N4CCN(Cc5ccc(F)cc5)CC4)c4ccc(C)cc34)cc2)c1C", "IC50 / nM": 12}
{"Compound": "CCC(=O)c1cnn(-c2ccc(NC(=O)c3cn(CC(=O)N4CCN(C)CC4)c4ccc(Cl)cc34)cc2)c1C", "IC50 / nM": 336}
{"Compound": "CCCC(=O)c1cnn(-c2ccc(NC(=O)c3cn(CC(=O)NCCN(C)C)c4ccc(C)cc34)cc2)c1C", "IC50 / nM": 92}
{"Compound": "CC(=O)c1cnn(-c2ccc(NC(=O)c3cn(CC(=O)N4CCN(C)CC4)c4ccc(Cl)cc34)cc2)c1C", "IC50 / nM": 143}
{"Compound": "CCCC(=O)c1cnn(-c2ccc(NC(=O)c3cn(CC(=O)N4CCC(NC)CC4)c4ccc(C)cc34)cc2)c1C", "IC50 / nM": 115}
{"Compound": "CCCC(=O)c1cnn(-c2ccc(NC(=O)c3cn(CC(=O)N4C[C@@H]5C[C@H]4CN5C)c4ccc(C)cc34)cc2)c1C", "IC50 / nM": 70}
{"Compound": "CCCC(=O)c1cnn(-c2ccc(NC(=O)c3cn(CC(=O)N4CCN(C(C)C)CC4)c4ccc(C)cc34)cc2)c1C", "IC50 / nM": 82}
{"Compound": "CCCC(=O)c1cnn(-c2ccc(NC(=O)c3cn(CC(=O)N4CCN5CCCC5C4)c4ccc(C)cc34)cc2)c1C (stereo unspecified)", "IC50 / nM": 76}
{"Compound": "CCCC(=O)c1cnn(-c2ccc(NC(=O)c3cn(CC(=O)N4CCNC(C)C4)c4ccc(C)cc34)cc2)c1C (stereo unspecified)", "IC50 / nM": 46}
{"Compound": "CCCC(=O)c1cnn(-c2ccc(NC(=O)c3cn(CC(=O)N4CC(C)N(C)C(C)C4)c4ccc(C)cc34)cc2)c1C (stereo unspecified)", "IC50 / nM": 28}
